assay: In vitro cytotoxicity (MTT assay) on L-929 cells; assay type: cell-based, mouse; details: mouse, L-929 mouse fibroblast cells; 6.25 μg/mL, L-929, 24 h, MTT; read-out: Cell viability
Lab note: cut-off is 50%. Strictly less in viability at 24 h, 6.25 μg/mL is y. Exactly 50% or more is n.

Example results:
>>> df
                                   compound  cat
0  CCN(CC)C(=O)Cc1c(-c2ccc(OCCF)cc2)nn2c(C)cc(C)nc12 [DPA-714, reference compound]    y
1  CCc1cc(CC)n2nc(-c3ccc(F)cc3)c(CC(=O)N(CC)CCOC)c2n1    n

Continue with the next compound.
Consider `CCCN(CCC)C(=O)Cc1c(-c2ccc(F)cc2)nn2c(CC)cc(CC)nc12` . Does its viability at 24 h, 6.25 μg/mL lie strictly below 50%?
n
